- EXPERIMENT: Pharmacokinetic analysis
- Format: in vivo, mice
- EXPERIMENTAL_CONTEXT: female, CD1, mouse, ip; mice, single injection 20 mg/kg i.p., plasma; read-out: Cmax (maximum concentration observed)
PARAMETER: Cmax (ng/mL)

compound="OCc1ccc2cc(-c3ccc(O)c(C45CC6CC(CC(C6)C4)C5)c3)ccc2c1 [Analog 2]" result_unit=ng/mL test_value=16100

###

- EXPERIMENT: Cytotoxicity (WST-1) in a panel of human cell lines
- Assay type: cell-based
- EXPERIMENTAL_CONTEXT: panel of human cell lines, serum-free media, 24 h; read-out: LC50
PARAMETER: CC50 at 24 h

sample_smiles=OCc1ccc2cc(-c3ccc(O)c(C45CC6CC(CC(C6)C4)C5)c3)ccc2c1 test_value="≥ 31 µg/mL"
